Data origin: paper PMC9596378

# assayed.target: CypA (Homo sapiens)
# Construct: PPIA (UniProtKB Entry P62937: residues 1–165); made in house; host or cells: E. coli BL21(DE3)
# Sequence (P62937 whole entry, the tested form may be a part): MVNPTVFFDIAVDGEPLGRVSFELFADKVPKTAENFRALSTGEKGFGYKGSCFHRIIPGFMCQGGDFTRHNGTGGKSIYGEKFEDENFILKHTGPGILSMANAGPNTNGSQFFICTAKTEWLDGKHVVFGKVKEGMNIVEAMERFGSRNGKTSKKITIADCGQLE
# assay.details: Chymotrypsin coupled prolyl-isomerase assay
# Format: biochemical
# condition.notes: prolyl-isomerase inhibition; read-out: IC50 CypA
readout: pIC50
Quick note: pIC50 means taking -log10 of the concentration in moles per liter.

pIC50 on CypA (Homo sapiens) for NCCOCCNC(=O)[C@@H]1CCNC(=O)/C=C/C(=O)N2CCC[C@](Cc3ccccc3)(C2)C(=O)N[C@@H](Cc2ccc(-c3ccc(CCC(=O)O)cc3)cc2)C(=O)NCc2ccccc2CC(=O)N1 [Compound B23] is 7.10

* * *

# assayed.target: CypD (Homo sapiens, UniProt P30405)
# Sequence (P30405 45-207): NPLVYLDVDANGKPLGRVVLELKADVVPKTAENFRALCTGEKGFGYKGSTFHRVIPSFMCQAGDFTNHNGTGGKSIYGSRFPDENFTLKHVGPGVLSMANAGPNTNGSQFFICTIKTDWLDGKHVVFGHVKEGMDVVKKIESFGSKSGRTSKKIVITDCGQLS
# assay.details: Chymotrypsin coupled prolyl-isomerase assay
# condition.notes: read-out: Wild-Type Cyclophilin Prolyl Isomerase Inhibition IC50 Values, CypD; wild-type CypD
readout: IC50

Per the record, CCOC(=O)C(Cc1ccc(-c2ccc(CC3NC(=O)C4(Cc5ccccc5)CCCN(C4)C(=O)C=CC(=O)NCCC(C(=O)NCCNC(=O)CCCCCN4C(=CC=CC=CC5=[N+](C)c6ccccc6C5(C)C)C(C)(C)c5ccccc54)NC(=O)Cc4ccccc4CNC3=O)cc2)cc1)C(=O)OCC (stereo not shown) has IC50 of > 2 µM

Per the record, CCOC(=O)CC(CC(=O)OCC)c1ccc(-c2ccc(CC3NC(=O)C4(Cc5ccccc5)CCCN(C4)C(=O)C=CC(=O)NCCC(C(=O)NCCNC(=O)CCCCCN4C(=CC=CC=CC5=[N+](C)c6ccccc6C5(C)C)C(C)(C)c5ccccc54)NC(=O)Cc4ccccc4CNC3=O)cc2)cc1 (stereo not shown) has IC50 of > 2 µM

Per the record, C[N+]1=C(C=CC=CC=C2N(CCCCCC(=O)NCCNC(=O)C3CCNC(=O)C=CC(=O)N4CCCC(Cc5ccccc5)(C4)C(=O)NC(Cc4ccc(-c5ccc(C(CC(=O)O)CC(=O)O)cc5)cc4)C(=O)NCc4ccccc4CC(=O)N3)c3ccccc3C2(C)C)C(C)(C)c2ccccc21 (stereo not shown) [Compound B53-Cy5] has IC50 of 0.029 µM

Per the record, `NC(=O)[C@@H]1CCNC(=O)/C=C/C(=O)N2CCC[C@](Cc3ccccc3)(C2)C(=O)N[C@@H](Cc2ccc(-c3cccc(B(O)O)c3)cc2)C(=O)NCc2ccccc2CC(=O)N1` has IC50 of 1.1 µM

Per the record, C[N+]1=C(C=CC=CC=C2N(CCCCCC(=O)NCCNC(=O)C3CCNC(=O)C=CC(=O)N4CCCC(Cc5ccccc5)(C4)C(=O)NC(Cc4ccc(-c5ccc(C(CC(=O)O)CC(=O)O)cc5)cc4)C(=O)NCc4ccccc4CC(=O)N3)c3ccccc3C2(C)C)C(C)(C)c2ccccc21 (stereo not shown) [*B53-Cy5] has IC50 of > 10 µM

Per the record, C[N+]1=C(C=CC=CC=C2N(CCCCCC(=O)NCCNC(=O)C3CCNC(=O)C=CC(=O)N4CCCC(Cc5ccccc5)(C4)C(=O)NC(Cc4ccc(-c5ccc(CC(C(=O)O)C(=O)O)cc5)cc4)C(=O)NCc4ccccc4CC(=O)N3)c3ccccc3C2(C)C)C(C)(C)c2ccccc21 (stereo not shown) [*B52-Cy5] has IC50 of > 10 µM

Per the record, C[N+]1=C(C=CC=CC=C2N(CCCCCC(=O)NCCNC(=O)C3CCNC(=O)C=CC(=O)N4CCCC(Cc5ccccc5)(C4)C(=O)NC(Cc4ccc(-c5ccc(CC(C(=O)O)C(=O)O)cc5)cc4)C(=O)NCc4ccccc4CC(=O)N3)c3ccccc3C2(C)C)C(C)(C)c2ccccc21 (stereo not shown) [Compound B52-Cy5] has IC50 of 0.007 µM
